Origin of measurements: patent US6340676B2

Hi! I'm sharing some IC50 results obtained with Human recombinant PTP1B (Homo sapiens, UniProt P18031).
Sequence (P18031 whole entry): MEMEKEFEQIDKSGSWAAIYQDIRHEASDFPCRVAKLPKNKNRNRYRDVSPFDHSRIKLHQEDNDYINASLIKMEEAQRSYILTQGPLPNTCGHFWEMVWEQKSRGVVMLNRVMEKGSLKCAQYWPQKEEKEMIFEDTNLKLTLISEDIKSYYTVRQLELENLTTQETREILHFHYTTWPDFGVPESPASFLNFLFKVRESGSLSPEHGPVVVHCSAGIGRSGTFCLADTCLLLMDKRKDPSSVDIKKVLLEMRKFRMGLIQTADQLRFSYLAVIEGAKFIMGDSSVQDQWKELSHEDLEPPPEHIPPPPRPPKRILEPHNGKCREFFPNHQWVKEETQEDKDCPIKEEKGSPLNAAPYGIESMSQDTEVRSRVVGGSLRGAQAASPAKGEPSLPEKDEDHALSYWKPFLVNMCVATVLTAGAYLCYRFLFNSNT
experimental_endpoint: IC50 (nM)

1. Cc1oc2cc3sc4ccccc4c3c(-c3cc(I)c(O[C@H](C)C(=O)O)c(I)c3)c2c1C | 284
2. Cc1oc2cc3sc4ccccc4c3c(-c3cc(I)c(O[C@H](Cc4ccccc4)C(=O)O)c(I)c3)c2c1C | 74
